All figures here come from the supplement of paper PMC6755084.

B1: minF1; a variant is named by its letters at N, in order (parent)
chain: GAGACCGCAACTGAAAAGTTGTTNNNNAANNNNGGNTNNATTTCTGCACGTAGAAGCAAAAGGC

- Variants of: B1
- protocol: fraction ligated after 30 min (ligated reads / total reads); higher = more ligase activity
- conditionsUsed: with F1*subA RNA substrate (template-directed ligation), 42 °C
Categorized via fraction ligated: small value (below 0.002), mid value (0.002 to below 0.003), large value (0.003 or more)

Query block: Class? Entry: GAGACCGCAACTGAAAAGTTGTTACAGAAATGGGGGTTAATTTCTGCACGTAGAAGCAAAAGGC [ACAGATGGGTA]
Result block: small value

Query block: Class? Entry: GAGACCGCAACTGAAAAGTTGTACAAAAGGATGGGTTGAATTTCTGCACGTAGAAGCAAAAGGC [CAAAGATGTGA T23A A29G]
Result block: mid value

Query block: Class? Entry: GAGACCGCAACTGAAAAGTTGTATCAGAAATATGGTTGAATTTCTGCACGTAGAAGCAAAAGGC [TCAGATATTGA T23A]
Result block: mid value

Query block: Class? Entry: GAGACCGCAACTGAAAAGTTGTTATCGAATATGGGTTGAATTTCTGCACGTAGAAGCAAAAGGC [ATCGTATGTGA]
Result block: small value

Query block: Class? Entry: GAGACCGCAACTGAAAAGTTGTTATCAAAAGGATGGTTAATTTCTGCACGTAGAAGCAAAAGGC [ATCAAGGAGTA G34T]
Result block: large value

Query block: Class? Entry: GAGACCGCAACTGAAAAGTTGTTTCGAAATGGAGGGTTGATTTCTGCACGTAGAAGCAAAAGGC [TCGATGGAGTG]
Result block: large value

Query block: Class? Entry: GAGACCGCAACTGAAAAGTTGTTATCAAAATAGGGTTGAATTTCTGCACGTAGAAGCAAAAGGC [ATCAATAGTGA]
Result block: large value

Query block: Class? Entry: GAGACCGCAACTGAAAAGTTGTTATCAAAATGAGGGTTAATTTCTGCACGTAGAAGCAAAAGGC [ATCAATGAGTA]
Result block: mid value

Query block: Class? Entry: GAGACCGCAACTGAAAAGTTGTATCGAAATGGATGGTTGATTTCTGCACGTAGAAGCAAAAGGC [TCGATGGAGTG T23A G34T]
Result block: large value

Query block: Class? Entry: GAGACCGCAACTGAAAAGTTGTTATCAGATGTGGGTTGAATTTCTGCACGTAGAAGCAAAAGGC [ATCATGTGTGA A28G]
Result block: small value

Query block: Class? Entry: GAGACCGCAACTGAAAAGTTGTTATCGAAATATGGGTTAATTTCTGCACGTAGAAGCAAAAGGC [ATCGATATGTA]
Result block: large value

Query block: Class? Entry: GAGACCGCAACTGAAAAGTTGTTACAGAAATGGAGGGTTATTTCTGCACGTAGAAGCAAAAGGC [ACAGATGGGTT G34A T37G]
Result block: small value

Query block: Class? Entry: GAGACCGCAACTGAAAAGTTGTTATCAAATGATGGGTTAATTTCTGCACGTAGAAGCAAAAGGC [ATCATGATGTA]
Result block: large value

Query block: Class? Entry: GAGACCGCAACTGAAAAGTTGTTATAGAATGATGGTTGAATTTCTGCACGTAGAAGCAAAAGGC [ATAGTGATTGA]
Result block: mid value

Query block: Class? Entry: GAGACCGCAACTGAAAAGTTGTTATCAGAAAGTGGTTGAATTTCTGCACGTAGAAGCAAAAGGC [ATCAAAGTTGA A28G]
Result block: large value

Query block: Class? Entry: GAGACCGCAACTGAAAAGTTGTTTCAGAATGAGGGTTGAATTTCTGCACGTAGAAGCAAAAGGC [TCAGTGAGTGA]
Result block: large value

Query block: Class? Entry: GAGACCGCAACTGAAAAGTTGTTATCGAATGGTGGGTTGATTTCTGCACGTAGAAGCAAAAGGC [ATCGTGGTGTG]
Result block: large value

Query block: Class? Entry: GAGACCGCAACTGAAAAGTTGTTTCAGAAATGGATGGTTATTTCTGCACGTAGAAGCAAAAGGC [TCAGATGGGTT G34A G35T T37G]
Result block: small value

Query block: Class? Entry: GAGACCGCAACTGAAAAGTTGTTCAGAAATGGAGGGTTAATTTCTGCACGTAGAAGCAAAAGGC [CAGATGGAGTA]
Result block: mid value

Query block: Class? Entry: GAGACCGCAACTGAAAAGTTGTTATCGAATGATGGGTTGATTTCTGCACGTAGAAGCAAAAGGC [ATCGTGATGTG]
Result block: large value

Query block: Class? Entry: GAGACCGCAACTGAAAAGTTGTACAGAAATGATGGGTTAATTTCTGCACGTAGAAGCAAAAGGC [CAGATGATGTA T23A]
Result block: mid value

Query block: Class? Entry: GAGACCGCAACTGAAAAGTTGTTACAGTGGATGGGTTGAATTTCTGCACGTAGAAGCAAAAGGC [ACAGGATGTGA A28T A29G]
Result block: large value

Query block: Class? Entry: GAGACCGCAACTGAAAAGTTGTTAAGAAATATGGGTTGAATTTCTGCACGTAGAAGCAAAAGGC [AAGATATGTGA]
Result block: small value

Query block: Class? Entry: GAGACCGCAACTGAAAAGTTGTATCAGAAAGGTGGGTTGATTTCTGCACGTAGAAGCAAAAGGC [TCAGAGGTGTG T23A]
Result block: large value

Query block: Class? Entry: GAGACCGCAACTGAAAAGTTGTATCAGAATATGGGTTGAATTTCTGCACGTAGAAGCAAAAGGC [TCAGTATGTGA T23A]
Result block: mid value

Query block: Class? Entry: GAGACCGCAACTGAAAAGTTGTTATCAGAAATGGTGGTTATTTCTGCACGTAGAAGCAAAAGGC [ATCAAATGGTT A28G G35T T37G]
Result block: small value

Query block: Class? Entry: GAGACCGCAACTGAAAAGTTGTTATCGAATGGATGGTTAATTTCTGCACGTAGAAGCAAAAGGC [ATCGTGGAGTA G34T]
Result block: large value

Query block: Class? Entry: GAGACCGCAACTGAAAAGTTGTATCAAAAGGATGGGTTAATTTCTGCACGTAGAAGCAAAAGGC [TCAAGGATGTA T23A]
Result block: small value

Query block: Class? Entry: GAGACCGCAACTGAAAAGTTGTTATAGAATGGTGGTTGAATTTCTGCACGTAGAAGCAAAAGGC [ATAGTGGTTGA]
Result block: mid value

Query block: Class? Entry: GAGACCGCAACTGAAAAGTTGTTATCAGAATATGGGTTAATTTCTGCACGTAGAAGCAAAAGGC [ATCAATATGTA A28G]
Result block: large value

Query block: Class? Entry: GAGACCGCAACTGAAAAGTTGTTCAGAATGGAGGGTTGAATTTCTGCACGTAGAAGCAAAAGGC [CAGAGGAGTGA A29T]
Result block: small value

Query block: Class? Entry: GAGACCGCAACTGAAAAGTTGTTATCAGAAATGGTGGTTGTTTCTGCACGTAGAAGCAAAAGGC [ATCAAATGGTT A28G G35T T37G A40G]
Result block: small value

Query block: Class? Entry: GAGACCGCAACTGAAAAGTTGTTATCAGAGGATGGTTGAATTTCTGCACGTAGAAGCAAAAGGC [ATCAGGATTGA A28G]
Result block: small value

Query block: Class? Entry: GAGACCGCAACTGAAAAGTTGTTATCGAAATGAGGGTTAATTTCTGCACGTAGAAGCAAAAGGC [ATCGATGAGTA]
Result block: mid value

Query block: Class? Entry: GAGACCGCAACTGAAAAGTTGTTATGAAATGGATGGTTGATTTCTGCACGTAGAAGCAAAAGGC [ATGATGGAGTG G34T]
Result block: large value

Query block: Class? Entry: GAGACCGCAACTGAAAAGTTGTTTCAGAAATATGGGTTGATTTCTGCACGTAGAAGCAAAAGGC [TCAGATATGTG]
Result block: large value

Query block: Class? Entry: GAGACCGCAACTGAAAAGTTGTTATAGAAATGGGGTTGAATTTCTGCACGTAGAAGCAAAAGGC [ATAGATGGTGA]
Result block: large value

Query block: Class? Entry: GAGACCGCAACTGAAAAGTTGTTATAGAATGTGGGTTGAATTTCTGCACGTAGAAGCAAAAGGC [ATAGTGTGTGA]
Result block: mid value

Query block: Class? Entry: GAGACCGCAACTGAAAAGTTGTTTCAGAATGGTGGTTGAATTTCTGCACGTAGAAGCAAAAGGC [TCAGTGGTTGA]
Result block: mid value

Query block: Class? Entry: GAGACCGCAACTGAAAAGTTGTTTCAGAAAGAGGGTTGAATTTCTGCACGTAGAAGCAAAAGGC [TCAGAGAGTGA]
Result block: small value

Query block: Class? Entry: GAGACCGCAACTGAAAAGTTGTTATCGAAATGGTGGGTTGTTTCTGCACGTAGAAGCAAAAGGC [ATCGATGGGTT G34T T37G A40G]
Result block: small value

Query block: Class? Entry: GAGACCGCAACTGAAAAGTTGTTATCAGATGGATGGGTTGTTTCTGCACGTAGAAGCAAAAGGC [ATCATGGAGTT A28G G34T T37G A40G]
Result block: small value

Query block: Class? Entry: GAGACCGCAACTGAAAAGTTGTTTCAGAAAGATGGGTTAATTTCTGCACGTAGAAGCAAAAGGC [TCAGAGATGTA]
Result block: small value

Query block: Class? Entry: GAGACCGCAACTGAAAAGTTGTTATAAATGGATGGTTGAATTTCTGCACGTAGAAGCAAAAGGC [ATAAGGATTGA A29T]
Result block: large value

Query block: Class? Entry: GAGACCGCAACTGAAAAGTTGTTCAGAAAGGAGGGTTGAATTTCTGCACGTAGAAGCAAAAGGC [CAGAGGAGTGA]
Result block: large value
